Test system: NCI-H460 lung
Test: NCI-60 one-dose screen, 48 h (100 = growth as untreated, 0 = no growth, -100 = all killed)
Conditions: 10 µM unless noted
About 83,000 compounds went through this panel and 20% of them were active in at least one assay; those are over-represented in the sample as a whole.
The threshold is inclusive: growth of exactly 10% counts as rule met; values below receive rule not met.

[[record]]
molecule = "COc1ccc2c(c1)c(-c1nc(-c3c[nH]c4ncccc34)cs1)cn2CCCCN1CCCCC1"
class_name = "rule not met"

[[record]]
molecule = "C/C(=C\\c1ccn(-c2ccc(N)cc2)n1)[C@@H]1C[C@@H]2O[C@]2(C)CCC[C@H](C)[C@H](O)[C@@H](C)C(=O)C(C)(C)[C@@H](O)CC(=O)O1"
class_name = "rule met"

[[record]]
molecule = "C=C1C[C@](OC)([C@H](O)C(=O)N[C@@H](OC)[C@@H]2C[C@@H](O)C(C)(C)[C@@H](C[C@@H](COC)OC)O2)O[C@H](C)[C@@H]1C"
class_name = "rule not met"

[[record]]
molecule = "CC1(C)N=C(N)N=C(N)N1c1ccc(CCC(=O)Nc2ccc(S(=O)(=O)F)cc2)c(Cl)c1"
class_name = "rule not met"

[[record]]
molecule = "Cc1cc(C)c(CBr)c(C)c1"
class_name = "rule met"

[[record]]
molecule = "ClCCN(CCCl)c1ccc(/C=N\\N=C\\c2ccc(N(CCCl)CCCl)cc2)cc1"
class_name = "rule met"

[[record]]
molecule = "C/C(CC(C)(C)N1CC1)=N\\NC(=O)Nc1cccc2ccccc12"
class_name = "rule met"

[[record]]
molecule = "NC(=O)CNc1ccc([As]=[As]c2ccc(NCC(N)=O)cc2)cc1 (stereo not drawn)"
class_name = "rule met"

[[record]]
molecule = "O=C(Nc1ccncc1F)c1cn(CC2CC2)c2ccccc12"
class_name = "rule met"

[[record]]
molecule = "O=C1NC(=O)C(=Cc2cn(CCCCCCn3c4ccccc4c(=O)c4ccccc43)c3ccccc23)C(=O)N1"
class_name = "rule met"


Query: hey, is growth for this one >= 10%? CC1=C(CCCNS(C)(=O)=O)C2=C(C)C3(CC3)[C@@](C)(O)C(=O)C2=C1
Reply: rule not met

Query: Given Cc1cc(N(CCCl)CCCl)ccc1C=Nc1cccnc1 , state whether its growth is at least 10%.
Reply: rule met

* * *

System: SN12C renal
Test: NCI-60 one-dose screen, 48 h
Conditions: 10 µM unless noted
This is part of a sample that, as a whole, favours compounds with a hit. Of some 83,000 tested, about 20% had one in any assay. The source made the active and inactive calls. The calls were made as follows: active = growth percent below 10; inactive = the rest.
One label from this list, please: yes for active, no for inactive

Some solved entries appear below for comparison.
[[record]]
compound = "O=C1C=C2C(=CCOC2O)O1 (stereo unspecified)"
class_name = "no"

[[record]]
compound = "CC(=O)O[C@H](C[C@H](C(C)C)N(C)C(=O)[C@@H](NC(=O)[C@H]1CCCCN1C)C(C)(C)C)c1nc(C(=O)N[C@@H](Cc2ccccc2)C[C@H](C)C(=O)O)cs1"
class_name = "no"


Query: Name the outcome recorded for O=C(CC1(O)C(=O)Nc2ccccc21)c1ccc(C(=O)NCC2CCC3(CC2)OOC2(CCCCC2)OO3)cc1 (stereo unspecified) in the assay.
Reply: no

Query: Fill in: this test's call for COc1ccc2c(c1)c(-c1nc(-c3c[nH]c4ncccc34)cs1)cn2CCCCN1CCCCC1 is ___
Reply: yes

Query: Which result was noted for this compound in the test: CCOC(=O)[C@@H](C)C[C@H](Cc1ccccc1)NC(=O)c1csc([C@@H](C[C@H](C(C)C)N(C)C(=O)[C@@H](NC(=O)[C@H]2CCCCN2C)C(C)(C)C)OC(C)=O)n1
Reply: no

Query: Could you please tell me the result logged for O=c1[nH]c2ccc([N+](=O)[O-])cc2c(=O)o1 in this assay?
Reply: no
